Where do the numbers come from? From patent US11208381B2.

assay: Pharmacokinetic measurements in rats, intra-tracheal dosing; format: in vivo; conditions: rat, i.t. versus i.v., 24 h
endpoint-name: Lung conc i.t./i.v. Ratio at time 24 h

# molecule, Lung conc i.t./i.v. Ratio at time 24 h
rows = [
    ("COC(=O)c1cc2c(cc1C)/C(=C(/Nc1ccc(C(=O)NCCN3CCCN(C)CC3)cc1)c1ccccc1)C(=O)N2", 7),
]

1. COC(=O)c1cc2c(cc1C)/C(=C(/Nc1ccc(C(=O)NCCN3CCNC(=O)C3)cc1)c1ccccc1)C(=O)N2
2. COC(=O)c1cc2c(cc1C)/C(=C(/Nc1ccc(C(=O)NCCN3CCC(N(C)C)CC3)cc1)c1ccccc1)C(=O)N2
3. COC(=O)c1cc2c(cc1C)/C(=C(/Nc1ccc(C(=O)NCC3CCN(C)CC3)cc1)c1ccccc1)C(=O)N2
*Q* // ranking: key=Lung conc i.t./i.v. Ratio at time 24 h, reverse=True Put the labels in the requested order and write them down.
*A* 1, 3, 2
(1: 21, 3: 14, 2: 7.7)
